# System: calf thymus DNA
# experiment notes: Calf-thymus DNA titration (absorption hypochroism)
# Type: binding
# experimental setup: MA series: pH 7.0 phosphate buffer at 37° C.

{"compound": "C1=NCCCN=Cc2ccc[n]2[Au+][n]2cccc21.[Cl-] [MA_AuPr]", "assayed target": "calf thymus DNA", "Ka (calf thymus DNA)": "2.05(2) × 10^5 M^−1"}
{"compound": "CCOC1C[N+]2=Cc3ccc[n]3[Au-]23[n]2cccc2C=[N+]3C1.F[P-](F)(F)(F)(F)F [MA_AuOEt]", "assayed target": "calf thymus DNA", "Ka (calf thymus DNA)": "1.01(4) × 10^6 M^−1"}
{"compound": "ClC1C[N+]2=Cc3ccc[n]3[Au-]23[n]2cccc2C=[N+]3C1.F[P-](F)(F)(F)(F)F [MA_AuCl]", "assayed target": "calf thymus DNA", "Ka (calf thymus DNA)": "3.91(7) × 10^5 M^−1"}
{"compound": "CC1(C)C[N+]2=Cc3ccc[n]3[Au-]23[n]2cccc2C=[N+]3C1.[Cl-] [MA_AuDM]", "assayed target": "calf thymus DNA", "Ka (calf thymus DNA)": "1.63(3) × 10^5 M^−1"}
{"compound": "F[P-](F)(F)(F)(F)F.OC1CN=Cc2ccc[n]2[Au+][n]2cccc2C=NC1 (centres unmarked) [MA_AuOH]", "assayed target": "calf thymus DNA", "Ka (calf thymus DNA)": "1.43(3) × 10^5 M^−1"}
